CONDITION DETAILS: PAMPA
Where a SMILES comes first, the peptide text is derived from it. [ ]: non-standard residue; d: D form. NMeF = CN[C@@H](Cc1ccccc1)C(=O)O; dNMeL = CN[C@H](CC(C)C)C(=O)O
METRIC: PAMPA_R3 (×10⁻⁶ cm/s)
Numeric answer only, unit ×10⁻⁶ cm/s assumed.

>>> endpoint_result("CC[C@H](C)[C@@H]1NC(=O)[C@H](Cc2ccccc2)N(C)C(=O)[C@H]2CCCN2C(=O)[C@H]([C@@H](C)CC)NC(=O)[C@H](C(C)C)NC(=O)[C@@H](C)NC(=O)[C@H]2CCCN2C1=O [Design D7.9, VAL ILE DPRO *PHE ILE DPRO DALA] (cyclo(I[dP][NMeF]I[dP][dA]V))")
6.53

Next compound, please.
Qu. Bench note: what PAMPA_R3 did CC[C@H](C)[C@@H]1NC(=O)[C@H]2CCCN2C(=O)[C@@H]2CCCN2C(=O)[C@H](CC(C)C)NC(=O)[C@@H](C(C)C)NC(=O)[C@@H](CC(C)C)N(C)C(=O)[C@@H]2CCCN2C1=O [Design D7.1, PRO *DLEU DVAL LEU PRO DPRO ILE] (cyclo(IP[dNMeL][dV]LP[dP])) show?
Ans. 3.53

====

CONDITION DETAILS: PAMPA
METRIC: PAMPA_R1 (×10⁻⁶ cm/s)
Record the value in ×10⁻⁶ cm/s, omitting the unit from your answer.

>>> endpoint_result("CC(C)C[C@H]1C(=O)N2CCC[C@@H]2C(=O)N[C@@H](Cc2ccccc2)C(=O)N2CCC[C@H]2C(=O)N[C@H](C(C)C)C(=O)N[C@H](Cc2ccccc2)C(=O)N1C (single isomer, unassigned) [Design D6.9.p2, DVAL DPHE *LEU DPRO PHE PRO]")
6.03

Lab note: next compound to report on.
Qu. Query: PAMPA_R1; subject: CC(C)C[C@H]1C(=O)N2CCC[C@@H]2C(=O)N[C@@H](Cc2ccccc2)C(=O)N2CCC[C@H]2C(=O)N[C@H](C(C)C)C(=O)N[C@H](Cc2ccccc2)C(=O)N1C (single isomer, unassigned) [Design D6.9.p1, DVAL DPHE *LEU DPRO PHE PRO]
Ans. 4.01

====

CONDITION DETAILS: PAMPA
Where a SMILES comes first, the peptide text is derived from it. [ ]: non-standard residue; d: D form. dNMeF = CN[C@H](Cc1ccccc1)C(=O)O; NMeL = CN[C@@H](CC(C)C)C(=O)O; dNMeL = CN[C@H](CC(C)C)C(=O)O; NMeNle = CCCC[C@H](NC)C(=O)O; Sar = CNCC(=O)O
METRIC: PAMPA_R3

>>> endpoint_result("CC(C)C[C@@H]1NC(=O)[C@@H]2CCCN2C(=O)[C@H]2CCCN2C(=O)CN(C)C(=O)[C@@H](Cc2ccccc2)N(C)C(=O)[C@@H](CC(C)C)NC(=O)[C@@H](CC(C)C)N(C)C(=O)[C@@H]2CCCN2C(=O)[C@H](CC(C)C)N(C)C(=O)[C@H](CC(C)C)N(C)C1=O [Design D10.22] (cyclo(L[NMeL][NMeL]P[dNMeL][dL][dNMeF][Sar][dP]P))")
"BQL"
>>> endpoint_result("CC[C@@H](C)[C@H]1NC(=O)[C@@H](CC(C)C)NC(=O)[C@@H](CC(C)C)N(C)C(=O)[C@@H]2CCCN2C(=O)[C@@H](C(C)C)NC(=O)[C@@H](CC(C)C)NC(=O)[C@@H](CC(C)C)N(C)C(=O)[C@@H]2CCCN2C1=O [Design D8.3.p2, DLEU DVAL PRO *DLEU DLEU DILE PRO *DLEU] (cyclo(P[dNMeL][dL][dI]P[dNMeL][dL][dV]))")
"BQL"
>>> endpoint_result("CCCC[C@H]1C(=O)N[C@@H]([C@@H](C)CC)C(=O)N2CCC[C@H]2C(=O)N2CCC[C@@H]2C(=O)N[C@H](CC(C)C)C(=O)N[C@@H]([C@@H](C)CC)C(=O)N2CCC[C@@H]2C(=O)N[C@H](Cc2ccccc2)C(=O)N[C@@H](C(C)C)C(=O)N(C)[C@H](CC(C)C)C(=O)N1C [Design D10.44] (cyclo(IP[dP][dL]I[dP][dF]V[dNMeL][NMeNle]))")
"BQL"
